tested on: NCI-H226 lung; test: NCI-60 one-dose screen, 48 h; details: 10 µM unless noted
About 83,000 compounds went through this panel and 20% of them were active in at least one assay; those are over-represented in the sample as a whole. Activity calls are given as the source filed them. The calls were made as follows: active = growth percent below 10; inactive = the rest.
Labels: active, inactive

• CN(C)CCCOc1c2ccc(Cl)cc2nc2c1oc1ccccc12 = active
• OC1CCc2c(-c3ccc4ncnc(N5CCc6cc(F)c(Cl)cc65)c4c3)cncc21 (stereo not given) = inactive
• Cn1c(SCC(=O)Nc2ccc(-c3nc4ccc([N+](=O)[O-])cc4[nH]3)cc2)nc2ccccc2c1=O = inactive
• COc1ccc(COc2ccc(/C=C3/C(=O)Nc4cc(Cl)ccc43)cc2)cc1 = inactive
• CCCSc1nc(Nc2ccc(/C(C)=N\NC(N)=S)cc2)c(C#N)c(-c2ccc(OC)cc2)n1 = inactive

====

system: NCI-H460 lung; test: NCI-60 one-dose screen, 48 h (100 = growth as untreated, 0 = no growth, -100 = all killed); conditions: 10 µM unless noted
This is part of a sample that, as a whole, favours compounds with a hit. Of some 83,000 tested, about 20% had one in any assay. The source made the active and inactive calls. How the source made its calls: active means growth percent below 10; inactive means the rest.
Recorded growth values for a group of molecules are listed next.
endpoint: growth

• NS(=O)(=O)c1ccc(Nc2nc(SCC(=O)c3ccc(Cl)cc3)nc3ccccc23)cc1 = 97.1% (inactive)
• CN(C)c1ccc(-c2c(NC(C)(C)C)nc3c(OCCc4ccccc4)cccn23)cc1 = 3.22% (active)
• NC(=O)c1c(NC(=O)c2ccc(C3CCCCC3)cc2)sc2c1CCC(=O)C2 = 15.8% (inactive)
• COc1cc2nc(-c3ccc(C)cc3)cc(OCCCNCC3CCCO3)c2cc1OC (centres undefined) = 38% (inactive)
• COc1cc(N=Cc2sc(Nc3nccs3)nc2O)cc(OC)c1OC = 69.9% (inactive)
• CC(=O)c1ccc(Nc2nc(SC(C)C)nc(-c3ccccc3)c2C#N)cc1 = 101% (inactive)
• O=C(c1ccc(O)cc1)C1[C@H](c2ccc(Cl)cc2)[C@@H](c2ccccc2)NC12C(=O)Nc1ccc(Cl)cc12 (some centres undefined) = 20.6% (inactive)
• N#Cc1ccc(C(=O)CSc2nc(Nc3ccc(S(N)(=O)=O)cc3)c3ccccc3n2)cc1 = 111% (inactive)
• COc1cc(-c2ccc3ncnc(NC(C)c4ccccc4)c3c2)cnc1OC (centres undefined) = 64.5% (inactive)
• O=C(CSc1nc2sc3c(c2c(=O)n1-c1ccc(Cl)cc1)CCCC3)NNC(=O)Nc1ccc(Cl)c(C(F)(F)F)c1 = 11.8% (inactive)
• O=C(CCN1C(=O)/C(=C/c2ccccc2F)SC1=S)N1CCOCC1 = 90.7% (inactive)
• COc1ccc(N/N=C/c2c(-c3ccc(S(C)(=O)=O)cc3)nc3ccccn23)cc1 = 21.8% (inactive)
• Nc1cc(-c2c[nH]c3ccc(Cl)cc23)nc2cc(-c3c[nH]c4ccc(Cl)cc34)nn12 = 12.1% (inactive)
• COc1cc(/C=C/C(=O)c2cc(OC)c(OC)c(OC)c2)ccc1Oc1nc(NCCO)nc(N2CCOCC2)n1 = -51.6% (active)
• COc1cccc(-c2nn(-c3ccccc3)cc2-c2ccnc(N3CCN(C(=O)c4ccccc4)CC3)c2)c1 = 81.8% (inactive)
• CCCC(=O)NC(c1ccc(N(CC)CC)cc1)c1cc(C)c2cccnc2c1O (centres undefined) = 1.53% (active)
• N#Cc1nc(-c2ccccc2)oc1S(=O)(=O)N1CCN(CCc2ccccn2)CC1 = 100% (inactive)
• O=C1Nc2ccccc2Oc2ccc(S(=O)(=O)CC3CO3)cc21 (centres undefined) = 79.5% (inactive)
• CN1CCN(Cc2ccc(NC(=O)c3cncc(C#Cc4cnc5[nH]ncc5c4)c3)cc2C(F)(F)F)CC1 = 11.1% (inactive)
